Recorded measurements of Change in heart rate, one per entry
- Tested on: Rattus norvegicus
- test: Effect on heart rate in rat after an oral dose at 50 mg/kg (1h after dose)
- Assay type: functional
Express it in %; write the number only.

Completed entries (count: 2):
molecule	Change in heart rate (%)
O=C1CN2Cc3c(ccc(Cl)c3Cl)N=C2N1 [ANAGRELIDE]	28
Cc1cccc2c1CN1CC(=O)NC1=N2	18

Query string: Specify Change in heart rate for CN(C(=O)CCCOc1ccc2[nH]c(=O)ccc2c1)C1CCCCC1 [CILOSTAMIDE] and stop.
Result string: 22

Query string: In one line, give reported Change in heart rate of the entry Cl.O=C1CN2Cc3c(sc4c3CCCC4)N=C2N1 .
Result string: 4

Query string: Please give the documented Change in heart rate of CC1C(=O)NC2=Nc3sc4c(c3CN21)CCCC4.Cl (stereo not given)
Result string: 5
